- study.system: Recombinant human HSD17B13 (Homo sapiens (Human))
- assay.remarks: HSD17B13 rapid-fire mass spectrometry assay (RF/MS assay)
- run.conditions: inhibition of HSD17B13; LTB4 10 μM, NAD+ 0.5 mM, RT 3 h; IC50 ranges A-E
Listed here are compounds together with their documented IC50.

compound: CCOc1c(C2=CCC(C(C)C)CC2)ccc(-c2nc(S(=O)(=O)Nc3cc(F)c(C(=O)O)cc3OC)cs2)c1F (centres unmarked) [Example 809]
IC50: < 100 nM

compound: O=C(O)c1ccc(NS(=O)(=O)c2cnc(-c3ccc(F)cc3)s2)c(F)c1 [Example 28]
IC50: 100 to 500 nM

compound: COc1cc(C(=O)O)ccc1NS(=O)(=O)c1csc(-c2c(C)ccc3ccccc23)n1 [Example 152]
IC50: 100 to 500 nM

compound: COc1cc(C(=O)O)c(F)cc1NS(=O)(=O)c1csc(C#Cc2ccc(F)cc2)n1 [Example 222]
IC50: < 100 nM

compound: O=C(O)c1cc(NS(=O)(=O)c2cnc(-c3ccc(F)cc3)s2)n(-c2ccccc2)n1 [Example 92]
IC50: 1000 to 100000 nM

compound: COc1cc(C(=O)O)c(F)cc1NS(=O)(=O)c1cnc(-c2ccc([C@H]3CC[C@@H](C(C)C)CC3)cc2)s1 [Example 729]
IC50: 100 to 500 nM

compound: COc1cc(C(=O)O)ccc1NS(=O)(=O)N1Cc2ccc(C#CC3CCCC3)cc2C1 [Example 342]
IC50: 500 to 1000 nM

compound: COc1cc(C(=O)O)c(NC(C)=O)cc1NS(=O)(=O)c1csc(-c2ccc(C3CCC(C)(C)CC3)cc2C(F)(F)F)n1 [Example 695]
IC50: 1000 to 100000 nM

====

- study.system: Recombinant human HSD17B13 (Homo sapiens (Human), UniProt Q7Z5P4)
- Sequence (Q7Z5P4 20-300): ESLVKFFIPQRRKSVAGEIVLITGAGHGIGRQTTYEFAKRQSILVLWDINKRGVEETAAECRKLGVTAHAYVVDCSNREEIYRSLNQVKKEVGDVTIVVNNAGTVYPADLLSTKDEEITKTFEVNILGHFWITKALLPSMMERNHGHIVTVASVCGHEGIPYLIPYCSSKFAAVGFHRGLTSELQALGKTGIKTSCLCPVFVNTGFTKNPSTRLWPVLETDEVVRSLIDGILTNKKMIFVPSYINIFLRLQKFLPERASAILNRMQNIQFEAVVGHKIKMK
- assay.remarks: HSD17B13 rapid-fire mass spectrometry assay (RF/MS assay)
- run.conditions: inhibition of HSD17B13; LTB4 10 μM, NAD+ 0.5 mM, RT 3 h; IC50 ranges A-E
pIC50: −log10 of the molar value.
Listed here are compounds together with their documented pIC50.
value.kind: pIC50

compound: COc1cc(C(=O)O)c(F)cc1NS(=O)(=O)c1csc(C#Cc2ccc(C(C)(C)C)cc2)n1
value.kind: pIC50
test.value: > 7.00
--
compound: COc1cc(C(=O)O)ccc1NS(=O)(=O)c1ccc(-c2cnc(-c3ccccc3)s2)c(F)c1 [Example 337]
value.kind: pIC50
test.value: 6.30 to 7.00
--
compound: COc1cc(C(=O)O)ccc1NS(=O)(=O)c1ccc(-c2ccc3c(c2)C(C)(C)CCC3(C)C)cc1F
value.kind: pIC50
test.value: 6.00 to 6.30
--
compound: O=C(O)c1ccc2c(c1)CCN2S(=O)(=O)c1ccc(F)cc1
value.kind: pIC50
test.value: < 4.00

====

Listed here are molecules together with their documented pIC50.
- study.system: Recombinant human HSD17B13 (Homo sapiens (Human), UniProt Q7Z5P4)
- assay.remarks: HSD17B13 rapid-fire mass spectrometry assay (RF/MS assay)
- run.conditions: inhibition of HSD17B13; LTB4 10 μM, NAD+ 0.5 mM, RT 3 h; IC50 ranges A-E
pIC50: −log10 of the molar value.

molecule: COc1cc(C(=O)O)ccc1NS(=O)(=O)c1csc(C#Cc2ccc(N(C)C)cc2)n1
study.system: Recombinant human HSD17B13 (Homo sapiens (Human), UniProt Q7Z5P4)
pIC50: > 7.00

molecule: COc1cc(C(=O)O)c(F)cc1NS(=O)(=O)c1csc(-c2ccc([C@]3(CO)CC[C@@H](C(F)(F)F)CC3)cc2)n1
study.system: Recombinant human HSD17B13 (Homo sapiens (Human), UniProt Q7Z5P4)
pIC50: 6.00 to 6.30

molecule: CC[C@H]1CC[C@H](c2ccc(-c3nc4cc(S(=O)(=O)Nc5cc(F)c(C(=O)O)cc5OC)ccc4o3)cc2)CC1
study.system: Recombinant human HSD17B13 (Homo sapiens (Human), UniProt Q7Z5P4)
pIC50: 6.30 to 7.00

molecule: COc1cc(C(=O)O)c(F)cc1NS(=O)(=O)c1csc(-c2ccc([C@H]3CC[C@H](C(C)(C)C)CC3)c(F)c2C)n1
study.system: Recombinant human HSD17B13 (Homo sapiens (Human), UniProt Q7Z5P4)
pIC50: > 7.00

molecule: COc1cc(C(=O)O)c(F)cc1NS(=O)(=O)c1ccn(-c2ccc([C@H]3CC[C@@H](C(F)(F)F)CC3)cc2)n1
study.system: Recombinant human HSD17B13 (Homo sapiens (Human), UniProt Q7Z5P4)
pIC50: 6.30 to 7.00

molecule: COc1cc(C(=O)O)c(F)cc1NS(=O)(=O)c1csc(-c2ccc(-c3cccs3)cc2)n1
study.system: Recombinant human HSD17B13 (Homo sapiens (Human), UniProt Q7Z5P4)
pIC50: 6.30 to 7.00

molecule: COc1cc(C(=O)O)c(F)cc1NS(=O)(=O)c1csc(-c2ccc(C3=CCC(C(F)(F)F)CC3)c(F)c2C)n1 (stereo not shown)
study.system: Recombinant human HSD17B13 (Homo sapiens (Human), UniProt Q7Z5P4)
pIC50: > 7.00

molecule: Cc1cnn(-c2ccc(S(=O)(=O)Nc3ccc(C(=O)O)cc3)cc2F)c1
study.system: Recombinant human HSD17B13 (Homo sapiens (Human), UniProt Q7Z5P4)
pIC50: 4.00 to 6.00

molecule: Cc1cc(C(=O)O)ccc1NS(=O)(=O)c1cnc(-c2ccc(F)cc2)s1
study.system: Recombinant human HSD17B13 (Homo sapiens (Human), UniProt Q7Z5P4)
pIC50: 4.00 to 6.00

molecule: C=C(COC)c1ccc(-c2nc(S(=O)(=O)Nc3ccc(C(=O)O)cc3OC)cs2)cc1
study.system: Recombinant human HSD17B13 (Homo sapiens (Human), UniProt Q7Z5P4)
pIC50: 6.30 to 7.00

====

- study.system: Recombinant human HSD17B13 (Homo sapiens (Human), UniProt Q7Z5P4)
- assay.remarks: HSD17B13 rapid-fire mass spectrometry assay (RF/MS assay)
- run.conditions: inhibition of HSD17B13; LTB4 10 μM, NAD+ 0.5 mM, RT 3 h; IC50 ranges A-E

molecule: COc1cc(C(=O)O)ccc1NS(=O)(=O)c1csc(C#Cc2ccc(O)cc2)n1
IC50: 1 to 100 µM
--
molecule: COC(=O)c1ccc(C#Cc2nc(S(=O)(=O)Nc3ccc(C(=O)O)cc3OC)cs2)cc1OC(F)(F)F
IC50: < 0.1 µM
--
molecule: COc1cc(C(=O)O)ccc1NS(=O)(=O)c1csc(-c2ccc(C3CCCC(OC)C3)cc2)n1 (stereo not shown)
IC50: 0.1 to 0.5 µM
--
molecule: CN(C)S(=O)(=O)NC(=O)c1ccc(NS(=O)(=O)c2cnc(-c3ccc(F)cc3)s2)cc1
IC50: 1 to 100 µM
--
molecule: COc1ccnc(C#Cc2nc(S(=O)(=O)Nc3ccc(C(=O)O)cc3OC)cs2)c1
IC50: 1 to 100 µM
--
molecule: COc1cc(C(=O)O)ccc1NS(=O)(=O)c1csc(-c2ccc(-c3ccccc3)cc2)n1
IC50: 0.5 to 1 µM
--
molecule: COc1cc(C(=O)O)ccc1NS(=O)(=O)c1ccc(-c2cccc(-c3ccc(OC(F)(F)F)cc3)c2)s1
IC50: 0.5 to 1 µM
--
molecule: COc1nc2c(cc1C(=O)O)CN(S(=O)(=O)c1ccc(F)cc1)CC2
IC50: > 100 µM
--
molecule: COc1cc(C(=O)O)c(F)cc1NS(=O)(=O)c1csc(-c2ccc(C3=CCC(C(C)(C)C)CC3)cc2)n1 (stereo not shown)
IC50: < 0.1 µM
--
molecule: COc1cc(C(=O)O)ccc1NS(=O)(=O)c1ccc(-c2ccccc2F)s1
IC50: < 0.1 µM

====

Listed here are compounds together with their documented pIC50.
- study.system: Recombinant human HSD17B13 (Homo sapiens (Human))
- assay.remarks: HSD17B13 rapid-fire mass spectrometry assay (RF/MS assay)
- run.conditions: inhibition of HSD17B13; LTB4 10 μM, NAD+ 0.5 mM, RT 3 h; IC50 ranges A-E
pIC50: −log10 of the molar value.

record.smiles: COc1cc(C(=O)O)ccc1NS(=O)(=O)c1csc(C#Cc2ccccc2C(F)(F)F)n1
study.system: Recombinant human HSD17B13 (Homo sapiens (Human))
pIC50: > 7.00
//
record.smiles: COc1cc(C(=O)O)ccc1NS(=O)(=O)c1coc(-c2ccc(C(F)(F)F)cc2)n1
study.system: Recombinant human HSD17B13 (Homo sapiens (Human))
pIC50: > 7.00
//
record.smiles: COc1cc(C(=O)O)c(F)cc1NS(=O)(=O)c1csc(-c2ccc(-c3cccc4[nH]ccc34)cc2)n1
study.system: Recombinant human HSD17B13 (Homo sapiens (Human))
pIC50: > 7.00
//
record.smiles: O=S(=O)(Nc1ccc(CO)cc1)c1cnc(-c2ccc(F)cc2)s1
study.system: Recombinant human HSD17B13 (Homo sapiens (Human))
pIC50: 4.00 to 6.00
//
record.smiles: O=C(O)c1ccc(NS(=O)(=O)c2ccc3ccccc3c2)cc1
study.system: Recombinant human HSD17B13 (Homo sapiens (Human))
pIC50: 4.00 to 6.00
//
record.smiles: O=C(O)[C@H]1CC[C@H](NS(=O)(=O)c2cnc(-c3ccc(F)cc3)s2)CC1
study.system: Recombinant human HSD17B13 (Homo sapiens (Human))
pIC50: 4.00 to 6.00
